Value source: ChEMBL document CHEMBL1139498

Molecular target: UniProtKB Q8NER1
Sequence (Q8NER1 whole entry): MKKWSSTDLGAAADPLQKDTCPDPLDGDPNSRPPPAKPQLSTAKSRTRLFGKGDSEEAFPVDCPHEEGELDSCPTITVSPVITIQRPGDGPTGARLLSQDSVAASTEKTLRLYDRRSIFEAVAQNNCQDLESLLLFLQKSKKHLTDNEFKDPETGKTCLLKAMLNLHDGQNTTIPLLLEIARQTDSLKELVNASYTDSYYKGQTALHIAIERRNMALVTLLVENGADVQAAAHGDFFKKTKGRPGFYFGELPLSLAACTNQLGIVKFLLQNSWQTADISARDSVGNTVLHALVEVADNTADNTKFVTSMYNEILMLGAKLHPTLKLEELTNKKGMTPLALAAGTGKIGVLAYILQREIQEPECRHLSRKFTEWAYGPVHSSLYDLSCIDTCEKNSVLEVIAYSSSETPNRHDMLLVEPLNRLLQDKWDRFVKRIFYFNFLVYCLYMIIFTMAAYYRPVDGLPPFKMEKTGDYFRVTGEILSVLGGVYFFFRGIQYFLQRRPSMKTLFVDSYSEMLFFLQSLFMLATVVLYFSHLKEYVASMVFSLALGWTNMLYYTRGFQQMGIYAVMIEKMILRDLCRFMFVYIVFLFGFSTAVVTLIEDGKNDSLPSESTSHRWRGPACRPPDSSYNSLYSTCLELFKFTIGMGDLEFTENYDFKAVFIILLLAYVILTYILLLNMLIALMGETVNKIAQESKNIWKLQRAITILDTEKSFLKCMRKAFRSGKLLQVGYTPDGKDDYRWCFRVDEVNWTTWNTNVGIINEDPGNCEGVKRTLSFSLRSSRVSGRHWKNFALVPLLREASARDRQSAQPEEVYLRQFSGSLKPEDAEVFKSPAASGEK
Test: Inhibition of capsaicin-induced calcium uptake by transient receptor potential vanilloid type 1 expressed in CHO cells
Format: functional, cell-based
MEASUREMENT_NAME: IC50 (nM)

molecule=O=C(/C=C/c1ccccc1)Nc1ccc2c(c1)OCCO2 reported_relation=> recorded_result=4000
molecule=CCOC(=O)c1cc(C(C)(C)C)ccc1/C=C/C(=O)Nc1ccc2c(c1)OCCO2 reported_relation== recorded_result=15
molecule=CC(C)(C)c1cccc(/C=C/C(=O)Nc2ccc3c(c2)OCCO3)c1 reported_relation== recorded_result=620
molecule="CC(C)(C)c1ccc(C2CC2C(=O)Nc2ccc3c(c2)OCCO3)cc1 (stereo unspecified)" reported_relation== recorded_result=1800
molecule=O=C(/C=C/c1ccc(O)cc1)Nc1ccc2c(c1)OCCO2 reported_relation=> recorded_result=4000
molecule=CC(C)Cc1ccc(/C=C/C(=O)Nc2ccc3c(c2)OCCO3)cc1 reported_relation== recorded_result=360
